# system name: T1, human UPK1B (hUPK1B) protein, full length, on the cell surface (human, UniProt O75841 1-260)
# T1 sequence: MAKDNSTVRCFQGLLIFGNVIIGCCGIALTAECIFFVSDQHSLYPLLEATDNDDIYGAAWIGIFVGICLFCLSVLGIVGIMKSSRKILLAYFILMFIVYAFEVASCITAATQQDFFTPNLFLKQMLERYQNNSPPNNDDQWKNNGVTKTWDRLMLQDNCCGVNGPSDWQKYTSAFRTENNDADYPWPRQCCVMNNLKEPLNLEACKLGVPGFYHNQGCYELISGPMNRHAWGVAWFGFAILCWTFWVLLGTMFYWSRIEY
# test details: cell-based or functional assay
Measured IVK, HxUPK1B, 250pM, fz, % live of individual entries
quantity name: IVK, HxUPK1B, 250pM, fz, % live (% live)

{"columns": ["binder", "obs value"],
 "data": [
  ["SC115.19 (antibody, IgG2a, V domains shown) VH: QITLKESGPGILQPSQTLSLTCSFSGFSLSTSGMGVGWIRQPSGKGLEWLANIWWNDDQYYNPPLKSRLTVSKDTSKTQVFLKIAHVDTADTATYYCARIYSGNYGAMDYWGQGTSVTVSS VL: DIVMTQAAFSNPVTLGTSASISCRSSKSLLHSNGITYLYWYLQKPGQSPQLLIYQMSSLASGVPDRFSSSGSGTDFTLRISRVEAEDVGVYYCAQSLELPYTFGGGTKLEIK", 20.4],
  ["SC115.48 (antibody, V domains shown) VH: EVQLVETGGGLVQPKGSLKLSCAASGLSFNTYAMNWVRQAPGKGLEWVARIRSKSNNYATYYADSVKDRFTISRDDSQSMLYLQMNNLKTEDTAMYYCVTSLFDYWGQGTTLTVSS VL: QLVVTQSSSASFSLGASAKLTCTLSSQHSTYTIEWYQQQPLKPPKYVMELKKDGSHSTGDGIPDRFSGSSSGADRYLSISNMQPEDEAIYICGVGEAIKEQFVYVFGGGTKVTVL", 22.2]
]}
